# System: Hek293T
# testSummary: Primary qHTS to identify gynecologic anti-cancer compounds using libraries of approved drugs and bioactive compounds (AID 1345084); also: nearly all actives have a fitted effect of over 55% in size
# experimentalParameters: Gynecologic cancer cell panel viability, ATPlite luminescence, 48 h, control line for the selectivity index; series mostly up to 57.5 µM
Inconclusive results are not listed. Calls of active or inactive are those of the source. Calls follow the shape of the dose curve; as a rule, active = well fitted cell-killing curve with a large enough effect; inconclusive = small, poorly fitted or top-dose-only effect, or effect the other way; inactive = flat fitted curve, though single readings scatter.
Respond with a class label; see true (1) for active, false (0) for inactive

Reference set (4 entries):
{"columns": ["compound", "groupLabel"],
 "data": [
  ["CC1OC2OC(=O)C3(C)CC4=C(CO)C5=C(CC(=O)C4(C)C(C1=O)C23)C(C)(C)OC(=O)C5 (stereo not given)", "false (0)"],
  ["CN1c2ccccc2C(=O)N2CCC3c4ccccc4NC3C21 (stereo not given)", "true (1)"],
  ["COC(=O)[C@H](O)[C@H]1C(C)(C)[C@H](OC(=O)C(C)C)[C@@]2(O)C(=O)[C@]1(C)C1CC[C@]3(C)C(CC(=O)O[C@H]3c3ccoc3)[C@]13O[C@@H]32 (stereo not given in full)", "false (0)"],
  ["O=C1Nc2ccccc2C(O)(c2ccccc2)C1O (stereo not given)", "false (0)"]
]}

Read the next record carefully.
**Q:** // return assay outcome for O=C(OC[C@@]1(O)CO[C@@H](O[C@H]2[C@H](Oc3ccc(O)cc3)O[C@H](CO)[C@@H](O)[C@@H]2O)[C@@H]1O)c1ccc(O)cc1
**A:** false (0)
